Assayed System: T1, EsCas13d, nuclease-dead (Eubacterium siraeum, UniProt B0MS50, R295A;H300A;R849A;H854A)
T1 sequence: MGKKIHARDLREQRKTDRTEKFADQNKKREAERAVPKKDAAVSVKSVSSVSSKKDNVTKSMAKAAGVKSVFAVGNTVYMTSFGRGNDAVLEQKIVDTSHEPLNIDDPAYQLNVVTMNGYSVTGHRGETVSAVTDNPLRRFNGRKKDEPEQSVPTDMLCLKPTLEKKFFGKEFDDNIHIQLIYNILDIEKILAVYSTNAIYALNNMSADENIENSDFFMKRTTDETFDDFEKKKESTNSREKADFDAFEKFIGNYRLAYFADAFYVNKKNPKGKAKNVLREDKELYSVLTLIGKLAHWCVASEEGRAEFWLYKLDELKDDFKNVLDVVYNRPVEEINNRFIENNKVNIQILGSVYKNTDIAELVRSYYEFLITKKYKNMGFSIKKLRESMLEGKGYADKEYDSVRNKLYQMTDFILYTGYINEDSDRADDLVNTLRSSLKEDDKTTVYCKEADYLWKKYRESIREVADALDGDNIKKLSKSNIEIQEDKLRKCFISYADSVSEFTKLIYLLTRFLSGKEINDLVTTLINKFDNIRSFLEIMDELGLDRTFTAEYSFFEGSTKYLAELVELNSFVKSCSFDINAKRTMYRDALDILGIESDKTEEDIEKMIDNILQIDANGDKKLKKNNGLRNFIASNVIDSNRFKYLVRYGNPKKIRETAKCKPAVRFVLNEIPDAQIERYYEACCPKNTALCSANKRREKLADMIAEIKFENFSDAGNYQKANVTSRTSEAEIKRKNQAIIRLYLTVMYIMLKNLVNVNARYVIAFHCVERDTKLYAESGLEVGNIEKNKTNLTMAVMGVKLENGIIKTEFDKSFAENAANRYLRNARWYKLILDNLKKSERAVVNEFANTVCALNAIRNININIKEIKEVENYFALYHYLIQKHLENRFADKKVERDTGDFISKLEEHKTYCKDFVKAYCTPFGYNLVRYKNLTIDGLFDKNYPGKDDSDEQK
Test Description: crRNA (strand 1, pre-loaded); Mg2+; 40 mM Tris-HCl pH 7.5, 150 mM NaCl, 6 mM MgCl2, 1 mM DTT, 0.1% Tween-20, 0.2 mg/ml BSA; 25 C; 10 min per concentration, then washed
Recorded Conditions: tags: His6-TwinStrep-SUMO cleaved; N-terminal SNAP kept (SNAP-Surface 488); label: 3' end held by stalled T7 RNA polymerase
Kd by entry:
Reported Property: Kd (µM)

Binder: target 1 C4A,A18U (mixed) RNA 1: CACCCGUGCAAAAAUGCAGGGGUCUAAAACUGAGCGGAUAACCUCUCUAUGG RNA 2: GGGAAUGGAUCCACAUCUACGAAUUCGUACCAUUGAGAGGUUAUCCGAUCACCGAGAUCGGAAGAGCACACGU
Reported Property: Kd
Measured Result: 0.0211

Binder: target 1 U3G,A18U (mixed) RNA 1: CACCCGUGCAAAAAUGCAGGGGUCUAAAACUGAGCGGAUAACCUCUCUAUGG RNA 2: GGGAAUGGAUCCACAUCUACGAAUUCGUACCAUUGAGAGGUUAUCCGCGCACCGAGAUCGGAAGAGCACACGU
Reported Property: Kd
Measured Result: 0.0205

Binder: target 1 G5A,U11G (mixed) RNA 1: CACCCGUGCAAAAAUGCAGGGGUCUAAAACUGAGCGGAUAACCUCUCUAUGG RNA 2: GGGAAUGGAUCCACAUCUACGAAUUCGUACCAUAGAGAGGGUAUCCACUCACCGAGAUCGGAAGAGCACACGU
Reported Property: Kd
Measured Result: 0.051

Binder: target 1 insC 3' of 10,insU 3' of 2 (mixed) RNA 1: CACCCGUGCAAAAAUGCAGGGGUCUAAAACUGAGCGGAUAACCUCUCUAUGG RNA 2: GGGAAUGGAUCCACAUCUACGAAUUCGUACCAUAGAGAGGUUCAUCCGCUCUACCGAGAUCGGAAGAGCACACGU
Reported Property: Kd
Measured Result: 0.0239

Binder: target 1 insA 3' of 22,insC 3' of 22 (mixed) RNA 1: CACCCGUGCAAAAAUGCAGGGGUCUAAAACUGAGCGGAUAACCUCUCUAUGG RNA 2: GGGAAUGGAUCCACAUCUACGAAUUCGUACACCAUAGAGAGGUUAUCCGCUCACCGAGAUCGGAAGAGCACACGU
Reported Property: Kd
Measured Result: 0.00892

Binder: target 1 insA 3' of 21,insA 3' of 21 (mixed) RNA 1: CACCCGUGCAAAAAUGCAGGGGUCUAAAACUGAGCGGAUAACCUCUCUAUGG RNA 2: GGGAAUGGAUCCACAUCUACGAAUUCGUACCAAAUAGAGAGGUUAUCCGCUCACCGAGAUCGGAAGAGCACACGU
Reported Property: Kd
Measured Result: 0.0154

Binder: target 3 insC 3' of 12,insU 3' of 3 (mixed) RNA 1: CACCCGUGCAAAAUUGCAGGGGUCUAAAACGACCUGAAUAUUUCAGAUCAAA RNA 2: GGGAAUGGAUCCACAUCUACGAAUUCGUUUUUGAUCUGAACAUAUUCAGGUUCUGCAGAUCGGAAGAGCACACGU
Reported Property: Kd
Measured Result: 0.105

Binder: target 1 MT 5'PFS AUG 3'PFS AUG (mixed) RNA 1: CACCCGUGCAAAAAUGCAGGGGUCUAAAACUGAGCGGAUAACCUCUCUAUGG RNA 2: GGGAAUGGAUCCACAUCUACGAAUUCAUGCCAUAGAGAGGUUAUCCGCUCAAUGAGAUCGGAAGAGCACACGU
Reported Property: Kd
Measured Result: 0.049
